- Test system: wild-type strain (MRSA2007-13 strain)
- Protocol Details: drug sensitivity test (MIC method), wild-type strain
- Assay type: cell-based, methicillin-resistant Staphylococcus aureus
- Test Parameters: MRSA2007-13 WT; dry plate, cultured 20 hours; in µg/mL (unit assumed)
Property Measured: MIC, WT

Smi: C[C@H]1c2cccc(O)c2C(=O)C2=C(O)[C@]3(O)C(=O)C(C(N)=O)=C(O)[C@@H](N(C)C)[C@@H]3[C@@H](O)[C@@H]21
Target: wild-type strain (MRSA2007-13 strain)
Inequality Operator: =
Reported Result: 8

Smi: C[C@@H](O)[C@H]1C(=O)N2C(C(=O)O)=C(SCCN=CN)C[C@H]12
Target: wild-type strain (MRSA2007-13 strain)
Inequality Operator: =
Reported Result: 64

Smi: CO/N=C(\C(=O)N[C@@H]1C(=O)N2C(C(=O)O)=C(/C=C\c3scnc3C)CS[C@H]12)c1csc(N)n1
Target: wild-type strain (MRSA2007-13 strain)
Inequality Operator: >
Reported Result: 2

Smi: C[C@@H](O)[C@H]1C(=O)N2C(C(=O)O)=C([C@H]3CCCO3)S[C@H]12
Target: wild-type strain (MRSA2007-13 strain)
Inequality Operator: >
Reported Result: 128

Smi: CN(C)[C@@H]1C(O)=C(C(N)=O)C(=O)[C@@]2(O)C(O)=C3C(=O)c4c(O)cccc4[C@@](C)(O)[C@H]3[C@H](O)[C@@H]12
Target: wild-type strain (MRSA2007-13 strain)
Inequality Operator: =
Reported Result: 128

Smi: Cc1nnc(SCC2=C(C(=O)O)N3C(=O)[C@@H](NC(=O)Cn4cnnn4)[C@H]3SC2)s1
Target: wild-type strain (MRSA2007-13 strain)
Inequality Operator: >
Reported Result: 128

Smi: C[C@@H](O)[C@H]1C(=O)N2C(C(=O)O)=C(S[C@@H]3CN[C@H](C(=O)N(C)C)C3)[C@H](C)[C@H]12
Target: wild-type strain (MRSA2007-13 strain)
Inequality Operator: =
Reported Result: 32

Smi: CCN1CCN(c2cc3c(cc2F)c(=O)c(C(=O)O)cn3C2CC2)CC1
Target: wild-type strain (MRSA2007-13 strain)
Inequality Operator: =
Reported Result: 128

Smi: CC1(C)S[C@@H]2[C@H](NC(=O)[C@H](N)c3ccc(O)cc3)C(=O)N2[C@H]1C(=O)O
Target: wild-type strain (MRSA2007-13 strain)
Inequality Operator: =
Reported Result: 64

Smi: CC/C=C(\C(=O)N[C@@H]1C(=O)N2C(C(=O)O)=C(COC(N)=O)CS[C@H]12)c1csc(N)n1
Target: wild-type strain (MRSA2007-13 strain)
Inequality Operator: >
Reported Result: 2
